Test system: NOMO1
PROTOCOL SUMMARY: cell viability relative to DMSO control; higher = less cytotoxic
TEST SETTINGS: RPMI 5 mM glucose + 10% FBS; 48 h; 5.12 µM
RESULT TYPE: cell viability (%)
Numbers only; they are read as %.

Request: Respond only with cell viability recorded for `CC[C@H](C)C(=O)O[C@H]1C[C@H](O)\C=C2\C=C/[C@H](C)[C@H](CC[C@@H](O)C[C@@H](O)CC(O)=O)[C@@H]12`
Result: 104

Request: Respond only with cell viability recorded for `CC(C)C[C@H](NC(=O)CNC(=O)c1cc(Cl)ccc1Cl)B(O)O`
Result: 5.18

Request: Respond only with cell viability recorded for `COc1ccc([C@@H]2CC(=O)c3c(O)cc(O[C@@H]4O[C@H](CO[C@@H]5O[C@@H](C)[C@H](O)[C@@H](O)[C@H]5O)[C@@H](O)[C@H](O)[C@H]4O)cc3O2)cc1O`
Result: 108

Request: Respond only with cell viability recorded for CN1CCN2c3ncccc3Cc3ccccc3C2C1 (centres undefined)
Result: 29.5

* * *

Test system: P12-Ichikawa
PROTOCOL SUMMARY: cell viability relative to DMSO control; higher = less cytotoxic
TEST SETTINGS: RPMI 5 mM glucose + 10% dialyzed FBS; 48 h; 0.0211 µM
Provide the reported cell viability of each item.
Numbers only; they are read as %.

Request: Respond only with cell viability recorded for `CCOC(=O)c1cncn1[C@H](C)c1ccccc1`
Result: 124

Request: Respond only with cell viability recorded for `CO/C1=C/C(C)=C\[C@@H](C)[C@@H](O)[C@@H](C)C/C(C)=C\C=C/[C@H](OC)[C@@H]([C@@H](C)[C@@H](O)[C@H](C)[C@@]2(O)C[C@@H](O)[C@H](C)[C@@H](C(C)C)O2)OC1=O`
Result: 75.2

Request: Respond only with cell viability recorded for `COc1cc2nc(-c3cc(F)ccc3O)nc(N[C@@H]3CNC[C@H]3C(C)(C)O)c2cc1OC`
Result: 113

Request: Respond only with cell viability recorded for `Cc1[nH]c(/C=C2\C(=O)Nc3ccccc32)c(C)c1CCC(=O)O`
Result: 110

Request: Respond only with cell viability recorded for C=CC(=O)Nc1cccc(Nc2nc(NC3CCC(N(C)C)CC3)nc3c2ncn3C(C)C)c1 (configuration not stated)
Result: 116

Request: Respond only with cell viability recorded for `CCC(=C/[C@H](C)C/C=C/C(C)=C/[C@@H](C)C(=O)[C@@H](C)[C@H](O)[C@@H](C)C/C(C)=C/C(=O)O)/C=C/[C@@H]1OC(=O)C=C[C@@H]1C`
Result: 115

Request: Respond only with cell viability recorded for `Cc1ccc([S+](=O)([O-])Nc2nc3ccccc3nc2Nc2ccc3nsnc3c2)cc1`
Result: 116

* * *

Test system: P12-Ichikawa
PROTOCOL SUMMARY: cell viability relative to DMSO control; higher = less cytotoxic
TEST SETTINGS: RPMI 5 mM glucose + 10% FBS; 48 h; 0.000781 µM
RESULT TYPE: cell viability (%)
Numbers only; they are read as %.

Request: Respond only with cell viability recorded for `CC1(N2CCC(n3c([C@@H]4CCCNC4)nc4ccccc43)CC2)CCCCCCC1`
Result: 98.3

Request: Respond only with cell viability recorded for `NCCCCNCCCN`
Result: 110

Request: Respond only with cell viability recorded for `Cc1cc(C(=O)N2CCN(c3cccc(Cl)c3)CC2)n(-c2ccccc2)n1`
Result: 105

Request: Respond only with cell viability recorded for `C=CCc1cccc(/C=N/NC(=O)CN2CCN(Cc3ccccc3)CC2)c1O`
Result: 110

Request: Respond only with cell viability recorded for `COc1ccc(Nc2nccc(NCCO)n2)cc1`
Result: 72

Request: Respond only with cell viability recorded for `CC(C)c1ccc(Cn2ccc3c4c(N)nc(NC5CC5)nc4ccc32)cc1`
Result: 118

Request: Respond only with cell viability recorded for `Nc1nnc(-c2cccc(Cl)c2Cl)c(N)n1`
Result: 90.2
